# credit: the OPERA property sets (Mansouri et al. 2018)

parameterMeasured: logP

compound	logP
CCCCCCCCCC(CCC)c1ccccc1 (stereo unspecified)	8.62
CCCCCCCCCC(CC)c1ccccc1 (stereo unspecified)	8.1
CCCCCCCCC(C)c1ccccc1 (stereo unspecified)	7.06
CCCCCCCCCCCC(C)c1ccccc1 (stereo unspecified)	8.77
CCCCCCC(CCCCC)c1ccccc1 (stereo unspecified)	8.01
CCCCCCCCC(CCC)c1ccccc1 (stereo unspecified)	8.07
CCCCCCCCCCCCCc1ccccc1	9.36
CCCCCCCCC(CCCCC)c1ccccc1 (stereo unspecified)	9.16
CCCCCC(CCCCC)c1ccccc1	7.45
CCCCCCCC(CCCCC)c1ccccc1 (stereo unspecified)	8.56
CCCCCCCC(CCC)c1ccccc1 (stereo unspecified)	7.59
